test system: 556581-035-R-J1-PDC complex spheroid growth; test: Anticancer human tumor 556581-035-R-J1-PDC patient-derived ovarian carcinoma cell line growth inhibition [AhR]; settings: second compound 0.316 µM; first compound 0.949 µM; hits give low values
# Criterion met = viability, T/C below 70% (exclusive); Criterion not met = viability, T/C at/above 70%

Compound	Study System	Class
O=C(C=Cn1cnc(-c2cc(C(F)(F)F)cc(C(F)(F)F)c2)n1)NNc1cnccn1 + Cc1ccccc1N=Nc1ccc(NC(=O)c2ccnn2C)c(C)c1	556581-035-R-J1-PDC complex spheroid growth	Criterion met
O=C(C=Cn1cnc(-c2cc(C(F)(F)F)cc(C(F)(F)F)c2)n1)NNc1cnccn1 + Cc1cncc(-c2nc(NCCc3c[nH]c4ccccc34)c3ncn(C(C)C)c3n2)c1	556581-035-R-J1-PDC complex spheroid growth	Criterion met
CCN(c1cc(-c2ccc(CN3CCOCC3)cc2)cc(C(=O)NCc2c(C)cc(C)[nH]c2=O)c1C)C1CCOCC1 + Cc1ccccc1N=Nc1ccc(NC(=O)c2ccnn2C)c(C)c1	556581-035-R-J1-PDC complex spheroid growth	Criterion not met
CCN(c1cc(-c2ccc(CN3CCOCC3)cc2)cc(C(=O)NCc2c(C)cc(C)[nH]c2=O)c1C)C1CCOCC1 + CC(CO)NC(=O)c1cc(-c2ccc(Cl)cc2)nn(-c2cnn(C)c2)c1=O	556581-035-R-J1-PDC complex spheroid growth	Criterion not met
CCN(c1cc(-c2ccc(CN3CCOCC3)cc2)cc(C(=O)NCc2c(C)cc(C)[nH]c2=O)c1C)C1CCOCC1 + Cc1cncc(-c2nc(NCCc3c[nH]c4ccccc34)c3ncn(C(C)C)c3n2)c1	556581-035-R-J1-PDC complex spheroid growth	Criterion not met

###

viability, T/C reference
System: 556581-035-R-J1-PDC complex spheroid growth
Test: Anticancer human tumor 556581-035-R-J1-PDC cell line growth inhibition [AhR];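 note: compound exposure lasted 7 days; 100% = DMSO vehicle control growth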
Conditions: second compound 0.1 µM; first compound 0.1 µM; hits give low values
Excerpt: Multicellular complex tumor spheroid response to aryl hydrocarbon receptor antagonists in combination with a variety of drugs and investigational agents in selected tumor cell lines […] Compounds. […] If the clinical Cmax for an agent had not been determined, the highest concentration tested was 10 microM (Table 1). […]
Quantity: viability, T/C (%)

> print(dat)
                                   compound  reported.result
1  O=C(C=Cc1cccc(S(=O)(=O)Nc2ccccc2)c1)NO + Cc1cncc(-c2nc(NCCc3c[nH]c4ccccc34)c3ncn(C(C)C)c3n2)c1              118
2  COc1ccc([C@@H](O)c2cc(-c3ncnc4cc(N5CCOCC5)ccc34)c(F)cc2Cl)nn1 + Cc1cncc(-c2nc(NCCc3c[nH]c4ccccc34)c3ncn(C(C)C)c3n2)c1              114
3  Nc1ccccc1NC(=O)c1ccc(CNC(=O)OCc2cccnc2)cc1 + CC(CO)NC(=O)c1cc(-c2ccc(Cl)cc2)nn(-c2cnn(C)c2)c1=O              102

###

tested on: 556581-035-R-J1-PDC complex spheroid growth; experiment: Anticancer human tumor 556581-035-R-J1-PDC cell line growth inhibition [AhR]; settings: second compound 3.16 µM; first compound 10 µM; hits give low values;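 note: compound exposure lasted 7 days; 100% = DMSO vehicle control growth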
Binning scheme for viability, T/C: Low = under 40%, Medium = from 40% up to 70%, High = 70% and over

Compound	Class
CC1(C)CCC(CN2CCN(c3ccc(C(=O)NS(=O)(=O)c4ccc(NCC5CCOCC5)c([N+](=O)[O-])c4)c(Oc4cnc5[nH]ccc5c4)c3)CC2)=C(c2ccc(Cl)cc2)C1 + Cc1cncc(-c2nc(NCCc3c[nH]c4ccccc34)c3ncn(C(C)C)c3n2)c1	Medium
NS(=O)(=O)OCC1CC(n2ccc3c(NC4CCc5ccccc54)ncnc32)CC1O (stereo not drawn) + CC(CO)NC(=O)c1cc(-c2ccc(Cl)cc2)nn(-c2cnn(C)c2)c1=O	High
CC(C)c1c(-c2ccccc2)nc2c(C#N)c[nH]n2c1=O + Cc1cncc(-c2nc(NCCc3c[nH]c4ccccc34)c3ncn(C(C)C)c3n2)c1	High
CC(C)c1c(-c2ccccc2)nc2c(C#N)c[nH]n2c1=O + CC(CO)NC(=O)c1cc(-c2ccc(Cl)cc2)nn(-c2cnn(C)c2)c1=O	High
COc1cc(C2c3cc4c(cc3C(OC3OC5COC(C)OC5C(O)C3O)C3COC(=O)C23)OCO4)cc(OC)c1O (stereo not drawn) + CC(CO)NC(=O)c1cc(-c2ccc(Cl)cc2)nn(-c2cnn(C)c2)c1=O	Medium
O=C(C=Cc1cccc(S(=O)(=O)Nc2ccccc2)c1)NO + Cc1ccccc1N=Nc1ccc(NC(=O)c2ccnn2C)c(C)c1	Low
CC1COCCN1c1cc(C2(S(C)(=N)=O)CC2)nc(-c2ccnc3[nH]ccc23)n1 (stereo not drawn) + Cc1ccccc1N=Nc1ccc(NC(=O)c2ccnn2C)c(C)c1	Medium
O=C(c1cc(Cc2n[nH]c(=O)c3ccccc23)ccc1F)N1CCN(C(=O)C2CC2)CC1 + Cc1cncc(-c2nc(NCCc3c[nH]c4ccccc34)c3ncn(C(C)C)c3n2)c1	High
Nc1ccn(C2OC(CO)C(O)C2(F)F)c(=O)n1 (stereo not drawn) + Cc1ccccc1N=Nc1ccc(NC(=O)c2ccnn2C)c(C)c1	Low
COc1ccc([C@@H](O)c2cc(-c3ncnc4cc(N5CCOCC5)ccc34)c(F)cc2Cl)nn1 + Cc1ccccc1N=Nc1ccc(NC(=O)c2ccnn2C)c(C)c1	Medium
O=C(c1cc(Cc2n[nH]c(=O)c3ccccc23)ccc1F)N1CCN(C(=O)C2CC2)CC1 + Cc1ccccc1N=Nc1ccc(NC(=O)c2ccnn2C)c(C)c1	High
CC1(C)CCC(CN2CCN(c3ccc(C(=O)NS(=O)(=O)c4ccc(NCC5CCOCC5)c([N+](=O)[O-])c4)c(Oc4cnc5[nH]ccc5c4)c3)CC2)=C(c2ccc(Cl)cc2)C1 + CC(CO)NC(=O)c1cc(-c2ccc(Cl)cc2)nn(-c2cnn(C)c2)c1=O	High
O=C(c1cc(Cc2n[nH]c(=O)c3ccccc23)ccc1F)N1CCN(C(=O)C2CC2)CC1 + CC(CO)NC(=O)c1cc(-c2ccc(Cl)cc2)nn(-c2cnn(C)c2)c1=O	High
COc1cccc2c1C(=O)c1c(O)c3c(c(O)c1C2=O)CC(O)(C(=O)CO)CC3OC1CC(N)C(O)C(C)O1 (stereo not drawn) + Cc1cncc(-c2nc(NCCc3c[nH]c4ccccc34)c3ncn(C(C)C)c3n2)c1	Low
CC(C)c1c(-c2ccccc2)nc2c(C#N)c[nH]n2c1=O + Cc1ccccc1N=Nc1ccc(NC(=O)c2ccnn2C)c(C)c1	High
Nc1ccccc1NC(=O)c1ccc(CNC(=O)OCc2cccnc2)cc1 + Cc1cncc(-c2nc(NCCc3c[nH]c4ccccc34)c3ncn(C(C)C)c3n2)c1	Low
Nc1ccn(C2OC(CO)C(O)C2(F)F)c(=O)n1 (stereo not drawn) + Cc1cncc(-c2nc(NCCc3c[nH]c4ccccc34)c3ncn(C(C)C)c3n2)c1	Low
COc1cc(C2c3cc4c(cc3C(OC3OC5COC(C)OC5C(O)C3O)C3COC(=O)C23)OCO4)cc(OC)c1O (stereo not drawn) + Cc1ccccc1N=Nc1ccc(NC(=O)c2ccnn2C)c(C)c1	Medium
COc1cccc2c1C(=O)c1c(O)c3c(c(O)c1C2=O)CC(O)(C(=O)CO)CC3OC1CC(N)C(O)C(C)O1 (stereo not drawn) + CC(CO)NC(=O)c1cc(-c2ccc(Cl)cc2)nn(-c2cnn(C)c2)c1=O	Low
COc1cc(Nc2ncc3c(n2)-c2ccc(Cl)cc2C(c2c(F)cccc2OC)=NC3)ccc1C(=O)O + CC(CO)NC(=O)c1cc(-c2ccc(Cl)cc2)nn(-c2cnn(C)c2)c1=O	Medium
Nc1ccccc1NC(=O)c1ccc(CNC(=O)OCc2cccnc2)cc1 + Cc1ccccc1N=Nc1ccc(NC(=O)c2ccnn2C)c(C)c1	Low
COc1ccc([C@@H](O)c2cc(-c3ncnc4cc(N5CCOCC5)ccc34)c(F)cc2Cl)nn1 + Cc1cncc(-c2nc(NCCc3c[nH]c4ccccc34)c3ncn(C(C)C)c3n2)c1	Medium

###

system: 556581-035-R-J1-PDC complex spheroid growth; experiment: Anticancer human tumor 556581-035-R-J1-PDC cell line growth inhibition [AhR]; details: second compound 1 µM; first compound 0.00316 µM; hits give low values;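 note: compound exposure lasted 7 days; 100% = DMSO vehicle control growth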
viability, T/C reference

Molecule	viability, T/C
Nc1ncn(C2CC(O)C(CO)O2)c(=O)n1 (stereo not drawn) + CC(CO)NC(=O)c1cc(-c2ccc(Cl)cc2)nn(-c2cnn(C)c2)c1=O	85%
Cn1ncnc1C1c2n[nH]c(=O)c3cc(F)cc(c23)NC1c1ccc(F)cc1 (stereo not drawn) + Cc1cncc(-c2nc(NCCc3c[nH]c4ccccc34)c3ncn(C(C)C)c3n2)c1	102%
CC[C@@]1(O)C(=O)OCc2c1cc1n(c2=O)Cc2cc3c(CN(C)C)c(O)ccc3nc2-1 + CC(CO)NC(=O)c1cc(-c2ccc(Cl)cc2)nn(-c2cnn(C)c2)c1=O	93.6%
